Biological target: LXRβ (Homo sapiens, UniProt P55055)
Construct: Co-transfection expression plasmids, comprising full-length LXRα (pCMX-h LXRα[…] or LXRβ (pCMX-hLXRβ)); expressed in transfected cells; host or cells: CV-1 African Green Monkey Kidney Cells
Sequence (P55055 1-460): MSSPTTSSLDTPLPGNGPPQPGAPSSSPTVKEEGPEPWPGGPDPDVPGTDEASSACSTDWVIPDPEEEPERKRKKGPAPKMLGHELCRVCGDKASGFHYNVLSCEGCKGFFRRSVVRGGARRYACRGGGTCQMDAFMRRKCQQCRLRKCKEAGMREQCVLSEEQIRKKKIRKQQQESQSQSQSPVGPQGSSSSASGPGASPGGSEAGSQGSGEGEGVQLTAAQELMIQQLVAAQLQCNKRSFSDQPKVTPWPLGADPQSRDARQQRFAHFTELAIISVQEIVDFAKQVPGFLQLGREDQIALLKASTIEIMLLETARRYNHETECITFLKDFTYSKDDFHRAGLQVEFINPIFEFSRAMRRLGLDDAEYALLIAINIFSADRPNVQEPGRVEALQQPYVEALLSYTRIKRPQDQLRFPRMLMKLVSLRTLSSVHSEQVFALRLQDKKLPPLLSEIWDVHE
Sequence (P19793 1-462 partner): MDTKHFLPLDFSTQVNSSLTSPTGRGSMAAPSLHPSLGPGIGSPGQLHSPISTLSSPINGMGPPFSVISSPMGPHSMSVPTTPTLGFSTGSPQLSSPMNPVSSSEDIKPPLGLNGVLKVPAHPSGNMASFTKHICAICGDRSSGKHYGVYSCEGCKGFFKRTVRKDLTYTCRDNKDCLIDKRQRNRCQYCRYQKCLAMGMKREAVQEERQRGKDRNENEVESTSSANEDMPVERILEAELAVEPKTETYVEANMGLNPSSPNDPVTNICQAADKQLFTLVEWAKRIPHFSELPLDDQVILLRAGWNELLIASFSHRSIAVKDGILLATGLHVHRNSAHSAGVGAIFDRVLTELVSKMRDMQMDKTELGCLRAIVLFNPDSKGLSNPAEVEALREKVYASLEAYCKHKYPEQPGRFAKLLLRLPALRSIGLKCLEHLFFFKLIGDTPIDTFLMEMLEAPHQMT
Assay: Co-transfection assay (LXRE luciferase reporter), LXRβ
Assay type: cell-based
Settings: LXRβ co-transfection; relative to high control 1-(2,4-difluorobenzyl)-2-oxo-6-(4-phenoxyphenyl)-4-(trifluoromethyl)-1,2-dihydropyridine-3-carbonitrile; read-out: % Efficacy
# if measured Emax < 40%: yes  # else: no

mol: Cc1cc(-c2cc(-c3cc(F)c(CO)c(S(C)(=O)=O)c3)ccc2-n2cc(C(F)(F)F)nc2C)n(-c2ccc(Cl)cc2)n1
system: LXRβ (Homo sapiens, UniProt P55055)
classification: no
--
mol: Cc1nc(C(F)(F)F)cn1-c1ccc(-c2cccc(S(C)(=O)=O)c2)cc1-n1nncc1Cc1cccc(OC(F)(F)F)c1
system: LXRβ (Homo sapiens, UniProt P55055)
classification: no

Input line: Lab note: confirm whether the reported Emax for this molecule is below 40%, equality not counting. molecule: "Cc1cc(-c2cc(-c3cc(F)c(CO)c(S(C)(=O)=O)c3)ccc2-n2cc(C(F)(F)F)nc2C)n(-c2ccc(OC(F)F)cc2)n1"
Output line: no

Input line: I wonder whether "CS(=O)(=O)c1cccc(-c2ccc(-n3cc(C(F)(F)F)nc3Cl)c(-n3nncc3-c3ccc(Cl)cc3Cl)c2)c1" has Emax below 40%. Can you tell?
Output line: no

Input line: Is 40% strictly greater than the molecule's reported Emax? molecule: "COc1ncc(-c2oc(C)nc2-c2cc(-c3cccc(S(C)(=O)=O)c3)ccc2-n2cc(C(F)(F)F)nc2C)cc1F"
Output line: no

Input line: # TODO verify Emax < 40% strictly for this molecule: "Cc1nc(-c2cc(-c3cc(F)c(CO)c(S(C)(=O)=O)c3)ccc2-n2cc(C(F)(F)F)nc2C)c(-c2cccc(OC(F)(F)F)c2)o1"
Output line: yes
